# System: CCRF-CEM
# Assay Method Text: NCI tumour cell line growth inhibition, 48 h
The source made the active and inactive calls. No stated cut-off is given here; in the data, active = GI50 up to about 1.1 µM and inactive = higher.
Reported GI50 is given for each of the following molecules.
Metric Name: GI50

molecule="CC1OC(OC2C(O[C@H]3CC[C@@]4(C)C(=CC[C@H]5[C@@H]6C[C@@H]7O[C@]8(CC[C@H](C)CN8)[C@@H](C)[C@@H]7[C@@]6(C)CC[C@@H]54)C3)OC(CO)C(O)C2OC2OC(CO)C(O)C(O)C2O)C(O)C(O)C1O (stereo partly drawn)" value_measured="21.6 µM (inactive)"
molecule=COc1ccc(/N=N/c2ccc3oc(=O)c(C(=O)Nc4ccc(OC)cc4)cc3c2)cc1 value_measured="4.89 µM (inactive)"
molecule=C=CCOn1c(C=C)nc2c(C)cccc21 value_measured="1.33 µM (inactive)"

---

# Tested on: RPMI-8226
# Assay Method Text: NCI tumour cell line growth inhibition, 48 h
The source made the active and inactive calls. No stated cut-off is given here; in the data, active = GI50 up to about 1.1 µM and inactive = higher.
Outcome codes: active, inactive

molecule=Cc1c(O)c(C)c2c(C)cn(C(=O)C(C)(C)C)c2c1C assigned_category=inactive
molecule=O=C(NNC(=S)Nc1cccc(Cl)c1)c1cc(-c2ccccc2)nc2ccccc12 assigned_category=inactive
molecule="O=C1CSC(c2ccc(Cl)cc2)N1c1ccc(-c2ccc(-n3c(-c4ccccc4)nc4ccccc4c3=O)cc2)cc1 (stereo not given)" assigned_category=inactive
molecule="COC(=O)C1(Cc2ccccc2)Cc2ccccc2C1=O (stereo not given)" assigned_category=inactive
molecule="O=C(CCCC1Cc2ccccc2C1=O)c1ccccc1 (stereo not given)" assigned_category=inactive
molecule="O=c1[nH]cnc2c(C3OC(CO)C(O)C3O)c[nH]c12 (stereo not given)" assigned_category=inactive
molecule=O=C(NC1=C(Cl)C(=O)c2ccccc2C1=O)c1ccc(F)cc1 assigned_category=inactive
molecule=O=C1C=C(c2c(O)ccc3ccccc23)c2ccccc2C1=O assigned_category=inactive
molecule=CCOC(=O)[C@@]1(C)C=C2O[C@@H]3OC4(CCCCC4)O[C@@H]3C2=C2C(O)=CC=C(O)[C@]21C(=O)OC assigned_category=inactive
molecule=C=C1C(=O)[C@@]23CC[C@H]4[C@@](C)(CCC[C@@]4(C)C(=O)OC)[C@@H]2CC[C@]1(O)C3 assigned_category=active

---

Reported GI50 is given for each of the following compounds.
# Test system: IGROV-1
# Assay Method Text: NCI tumour cell line growth inhibition, 48 h
The source made the active and inactive calls. Rule as the data show it: active = GI50 up to about 1.1 µM and inactive = higher.
Metric Name: GI50

compound="O=C1C[S+]([O-])c2ccccc2N1 (stereo unspecified)" metric_name=GI50 value_measured="> 100 µM (inactive)"
compound=[O-][n+]1ccc(NO)c2ccccc21 metric_name=GI50 value_measured="1.65 µM (inactive)"
compound=CCOC(=O)N1c2ccccc2S(=O)(=O)c2ccccc21 metric_name=GI50 value_measured="> 100 µM (inactive)"
compound=COc1ccc2o/c(=N\c3ccc(F)cc3)c(C(N)=O)cc2c1 metric_name=GI50 value_measured="79.3 µM (inactive)"
compound="O=c1[nH]c(=O)n(C2OC(CO)C(O)C(O)C2O)cc1F (stereo unspecified)" metric_name=GI50 value_measured="> 100 µM (inactive)"
compound=O=C(NCc1ccccc1)c1nn[nH]c1O metric_name=GI50 value_measured="> 100 µM (inactive)"
compound=O=C(NC1=C(Cl)C(=O)c2ccccc2C1=O)c1ccc(F)cc1 metric_name=GI50 value_measured="1.7 µM (inactive)"
compound=c1cc(-c2ncc(-c3ccc4c(c3)CCCO4)o2)ccn1 metric_name=GI50 value_measured="15.6 µM (inactive)"
compound=CCOC(=O)NC(=S)NN(C)C1=NCC(C)(C)S1 metric_name=GI50 value_measured="> 100 µM (inactive)"
compound="COC1CC(O[C@H]2CC[C@@]3(C)C(=CCC4(O)C3CCC35C(=O)OC6(C)O[C@@]43CCC65)C2)OC(C)C1O (stereo partly specified)" metric_name=GI50 value_measured="> 100 µM (inactive)"
compound=CC(=N/NC(=S)N1CCCCC1)/C(C)=N\NC(=S)N1CCCCC1 metric_name=GI50 value_measured="1.58 µM (inactive)"

Values compiled from ChEMBL document CHEMBL1201862.
